ASSAYED_SYSTEM: T1, recombinant cynomolgus TREM2 ECD (cynomolgus, UniProt A0A2K5UY34 49-204)
T1 construct: extracellular domain; also called cyno TREM2
T1 sequence: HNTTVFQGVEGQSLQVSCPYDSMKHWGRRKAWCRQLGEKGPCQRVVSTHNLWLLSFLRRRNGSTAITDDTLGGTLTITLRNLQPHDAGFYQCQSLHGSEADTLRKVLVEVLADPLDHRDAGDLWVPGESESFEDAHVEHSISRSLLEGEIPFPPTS
PROTOCOL: SPR (Biacore), cynomolgus TREM2
ASSAY_METRIC: pKd
In simple prose, pKd is minus the logarithm base ten of a concentration in moles per litre.

Known results for binders:
{"BINDER": "CL0020188-7 (antibody, V domains shown, Humanized variant of CL0020188) VH: EVQLVESGGGLVQPGGSLRLSCAASGFTFTDFYMSWVRQAPGKGLEWVSVIRNKANAYTAGYNPSVKGRFTISRDNSKNTLYLQMNSLRAEDTAVYYCARLTYGFDYWGQGTLVTVSS VL: DIVMTQTPLSLPVTPGEPASISCQSSKSLLHSTGKTYLNWYLQKPGQSPQLLIYWMSTRASGVPDRFSGSGSGTDFTLKISRVEAEDVGVYYCQQFLEYPFTFGQGTKVEIK", "pKd": 8.55}
{"BINDER": "Reference antibody #2 (antibody, V domains shown, also called 6E7 (WO 2018/195506)) VH: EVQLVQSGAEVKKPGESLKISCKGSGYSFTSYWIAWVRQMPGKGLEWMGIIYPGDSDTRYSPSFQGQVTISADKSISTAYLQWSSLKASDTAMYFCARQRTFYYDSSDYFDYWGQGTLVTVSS VL: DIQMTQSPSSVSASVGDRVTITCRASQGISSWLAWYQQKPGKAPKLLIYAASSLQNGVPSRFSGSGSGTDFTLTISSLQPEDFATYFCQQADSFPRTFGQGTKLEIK", "pKd": 8.04}

Exercise: I would be grateful if you could share the reported pKd for Reference antibody #1 (antibody, V domains shown, also called 4C5 (WO 2018/195506)) VH: EVQLVQSGAEVKKPGESLKISCKGSGHSFTNYWIAWVRQMPGKGLEWMGIIYPGDSDTRYSPSFQGQVTISADKSISTAYLQWSSLKASDTAVYFCARQRTFYYDSSGYFDYWGQGTLVTVSS VL: DIQMTQSPSSVSASVGDRVTITCRASQGISNWLAWYQQKPGKAPKLLIYAASSLQVGVPLRFSGSGSGTDFTLTISSLQPEDFATYYCQQADSFPRNFGQGTKLEIK .
Solution: 7.85
